Values were extracted from the DeepSol protein solubility set.

- Protocol details: soluble on expression in E. coli; label from the status in PepcDB or PDB records

Sequence code: MDISVIDATKVNTETGLHIGESNAPVKMIEFINVRCPYCRKWFEESEELLAQSVKSGKVERIIKLFDKEKESLQRGNVMHHYIDYSAPEQALSALHKMFATQDEWGNLTLEEVATYAEKNLGLKEQKDATLVSAVIAEANAAHIQFVPTIIIGEYIFDESVTEEELRGYIEK
soluble on expression in E. coli: soluble
//
Sequence code: MITSTNKEAYPNTLIVILGHDEGRSSFEEKEDVTRVTNDKGETIGFNFFNVDKLIDFDKLPNGPVKLSDDELEALNKKLAEVGFDDKLEYGKPTLVYGYVKTCEKHPDSDHLHVTTIEVGDGEEHQIVCGAPNIAQGQKVVVALPGTLMPNGAQIWPGKLRGVDSYGMICSARELGLPHAPQKRGIMVVPDSFEVGAEFEPTKCDELIASGEITLLEHHHHHH
soluble on expression in E. coli: soluble
